Every entry's value here was drawn from the supplement of paper PMC12042874.

assay: amyloid nucleation score (Sup35N fusion, yeast selection) (log enrichment); library NNK1; higher = more nucleation; inactive = no reads after selection;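 also: zero at mode of non-aggregating sequences after 7 days selection at 30°C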
Could you please report measured amyloid nucleation score for the items listed next?
One number for each entry.

Quick one: give me amyloid nucleation score for each item below, same order please.
1. TKFKIAYTCYFNMFHRRLCI
2. SEYLASMAVTRFLGIGWMNS
3. MLGSGAANTCHLTTRAWDHR
4. MNIVSTRS
5. VINCITRLDVQYRKHTPFAN
6. KIRVDRFNIRSCDIGSDLCY

A)
1. -0.374
2. 0.548
3. 0.183
4. 0.231
5. -0.382
6. -1.07

Quick one: give me amyloid nucleation score for each item below, same order please.
1. YWAKGNCYVAFRLKWRYNCG
2. LCLFFGLHLWVWMRKACCY
3. DVGMLV
4. YVCKIYFHDFDRNMGILEDH

A)
1.69
-0.205
-0.107
1.13

Quick one: give me amyloid nucleation score for each item below, same order please.
1. NYMWSQPLLYFECGRDQWLA
2. VMDVFV
3. GLYPKYNVGLNN
4. GCLKTVGCA
5. RLKLTGFMGLSILERVTLCS
6. VKHFLSDMRLFIGPKIFMRC
7. YMEGAGRYWRGQRKLPPCIA

A)
1. 2.92
2. -0.292
3. -0.376
4. -0.22
5. -0.396
6. 4.49
7. -0.414

Quick one: give me amyloid nucleation score for each item below, same order please.
1. FWWIGYKTSSDGPRAVAIWC
2. VNSVCSGGALMPGFKCAQLK
3. SPTLARSVWFRCLCTANGRE
4. RSCGMTVGACSYVACVSYCT
5. LEFGSSSGAIVMRGEDPCQP

A)
-0.137
-0.169
0.698
6.02
0.649

Quick one: give me amyloid nucleation score for each item below, same order please.
1. TTRMRRRY
2. NFHFVMGISVIRRLMSESQS
3. GFRFEMSRQIHKWQSSCLLY

A)
1.89
-0.366
0.489

Q) I'd like to know its amyloid nucleation score. The substance in question is CSCYQALKLA
A) -0.49
